Examples of compounds with documented pEC50 follow.
Target: human D2R/β-arrestin (Homo sapiens (Human), UniProt P14416)
Sequence (P14416 whole entry): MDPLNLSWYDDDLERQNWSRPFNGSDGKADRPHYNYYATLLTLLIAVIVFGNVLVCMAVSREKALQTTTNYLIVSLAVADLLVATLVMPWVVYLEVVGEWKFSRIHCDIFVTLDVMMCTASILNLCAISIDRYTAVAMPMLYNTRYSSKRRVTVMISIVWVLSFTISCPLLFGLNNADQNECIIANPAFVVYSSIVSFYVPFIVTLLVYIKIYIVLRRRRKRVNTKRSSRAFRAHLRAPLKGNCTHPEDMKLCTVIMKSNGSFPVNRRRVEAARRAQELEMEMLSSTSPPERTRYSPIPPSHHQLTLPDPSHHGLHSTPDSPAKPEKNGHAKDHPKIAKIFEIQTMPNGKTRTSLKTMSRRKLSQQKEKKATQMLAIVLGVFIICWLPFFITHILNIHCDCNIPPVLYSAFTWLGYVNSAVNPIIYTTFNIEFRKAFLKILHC
Assay: Gi/cAMP agonist assay (Lance Ultra cAMP, Forskolin)
Format: cell-based
Details: CHO-K1 cell line expressing human D2R/β-arrestin
Experimental: The assays can be performed using proper detection reagents either prepared using routine methods known in the art or commercially available (e.g., PE Lance Ultra cAMP kit (TRF0263)). Cells are grown to the necessary confluence and then detached. The cells are then centrifuged, washed, resuspended, and seeded into a container (e.g., 384-well plate). […] Read-out (e.g., luminescence, or fluorescence) is detected using standard equipment. […]
pEC50: −log10 of the molar value.

Here's what some known entries look like.
| Compound | pEC50 |
| --- | --- |
| O=C(NC(c1ccc(Cl)cc1)c1ccccc1F)C1CCN(CCOc2ccccc2F)CC1 (single isomer, unassigned) [Compound 96a] | 5.00 to 6.00 |
| CC(C)N(CC1CCN(CCOc2ccccc2F)CC1)C(c1ccc(Cl)cc1)c1ccccn1 (centres unmarked) [Compound 133] | > 7.00 |
| COc1cccc(C(c2ccccn2)N(C)CC2CCN(CCOc3ccccc3)CC2)c1 (single isomer, unassigned) [Compound 76a] | 6.00 to 7.00 |
| O=C(NC(c1ccc(Cl)cc1)c1ccccn1)C1CCN(CCOc2cc(F)ccc2F)CC1 (single isomer, unassigned) [Compound 14b] | < 4.52 |
| COCCN1CCC(C(=O)NC(c2ccc(Cl)cc2)c2ccccn2)CC1 (centres unmarked) | < 4.52 |
| O=C(NC(c1ccc(Cl)cc1)c1ccccn1)C1CCN(CCCCOc2ccccc2)CC1 (centres unmarked) | < 4.52 |
| Fc1ccccc1OCCN1CCC(CNC(c2ccc(Cl)cc2)c2ccccn2)CC1 (centres unmarked) | < 4.52 |
| Fc1ccccc1OCCN1CCC(CNC(c2ccc(Cl)cc2)c2ccccc2F)CC1 (centres unmarked) | < 4.52 |

GET /value?item= O=C(NC(c1ccc(F)cc1)c1ccc(F)cc1)C1CCN(CCOc2ccccc2Cl)CC1 &field=pEC50 returns < 4.52

Query CC(C)N(CC1CCN(CCOc2ccccc2F)CC1)C(c1ccc(Cl)cc1)c1ccccn1 (single isomer, unassigned) [Compound 133a] yields pEC50 of < 4.52
